Target desc: Mu-type opioid receptor (Homo sapiens, UniProt P35372)
Sequence (P35372 whole entry): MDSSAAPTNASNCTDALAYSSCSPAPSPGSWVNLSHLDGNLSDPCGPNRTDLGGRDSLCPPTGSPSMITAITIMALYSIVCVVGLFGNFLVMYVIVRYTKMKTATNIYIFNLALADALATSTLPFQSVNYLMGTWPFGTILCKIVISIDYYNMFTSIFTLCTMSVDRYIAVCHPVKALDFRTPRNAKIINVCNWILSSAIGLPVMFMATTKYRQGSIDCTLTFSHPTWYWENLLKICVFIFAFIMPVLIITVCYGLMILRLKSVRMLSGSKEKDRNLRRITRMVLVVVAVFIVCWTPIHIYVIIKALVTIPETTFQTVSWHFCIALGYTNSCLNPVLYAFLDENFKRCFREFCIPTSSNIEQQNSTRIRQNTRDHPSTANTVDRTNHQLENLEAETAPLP
Method: Activity at human mu opioid receptor expressed in CHO cells by [35S]GTP-gamma-S binding assay
Format: functional, cell-based
The molecules listed here are annotated with their Imax.
Field format: number, assumed %, no unit text.

The value of Imax measured for the molecule O=C(CCCCCCCCC(=O)Oc1ccc2c(c1)[C@@]13CCCCC1[C@@H](C2)N(CC1CCC1)CC3)Nc1ccc2c(c1)[C@@]13CCCCC1[C@@H](C2)N(CC1CCC1)CC3 (stereo not given in full) turned out to be 61

###

Method: Displacement of [3H]naltrindole from human delta opioid receptor expressed in CHO cells
The compounds listed here are annotated with their Ki.
Field format: number, assumed nM, no unit text.

compound=C#CCN1CC[C@]23CCCC[C@H]2[C@H]1Cc1ccc(O)cc13 recorded_result=0.62

Now let's try a different one.
The value of Ki measured for the compound Oc1ccc2c(c1)[C@@]13CCCCC1[C@@H](C2)N(C[C@@H]1CCCO1)CC3 (some centres not stated) turned out to be 0.27

###

The compounds listed here are annotated with their Ki.
Target desc: Delta-type opioid receptor (Homo sapiens, UniProt P41143)
Sequence (P41143 whole entry): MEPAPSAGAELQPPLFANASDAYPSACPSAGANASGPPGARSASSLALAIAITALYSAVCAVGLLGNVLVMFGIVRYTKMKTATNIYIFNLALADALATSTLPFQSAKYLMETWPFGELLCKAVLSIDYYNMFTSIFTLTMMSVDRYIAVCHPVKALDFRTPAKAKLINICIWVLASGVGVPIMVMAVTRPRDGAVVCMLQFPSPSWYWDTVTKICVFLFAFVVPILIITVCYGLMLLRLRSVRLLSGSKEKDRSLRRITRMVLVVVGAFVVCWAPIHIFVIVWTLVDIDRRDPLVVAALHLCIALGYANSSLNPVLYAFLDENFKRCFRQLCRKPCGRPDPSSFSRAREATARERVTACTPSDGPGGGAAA
Method: Displacement of [3H]naltrindole from human delta opioid receptor expressed in CHO cells
Field format: number, assumed nM, no unit text.

compound="O=C(CCCCCCCCC(=O)Oc1ccc2c(c1)[C@@]13CCCCC1[C@@H](C2)N(C[C@@H]1CCCO1)CC3)Oc1ccc2c(c1)[C@@]13CCCCC1[C@@H](C2)N(C[C@@H]1CCCO1)CC3 (some centres not stated)" experimental_endpoint=Ki recorded_result=8.3
compound="CN1CC[C@]23c4c5ccc(OC(=O)CCCCCCCCC(=O)Oc6ccc7c(c6)[C@@]68CCCCC6[C@@H](C7)N(CC6CCC6)CC8)c4O[C@H]2[C@@H](O)C=C[C@H]3[C@H]1C5 (some centres not stated)" experimental_endpoint=Ki recorded_result=3.9
compound="O=C(/C=C/C(=O)Nc1ccc2c(c1)[C@@]13CCCCC1[C@@H](C2)N(CC1CCC1)CC3)Nc1ccc2c(c1)[C@@]13CCCCC1[C@@H](C2)N(CC1CCC1)CC3 (some centres not stated)" experimental_endpoint=Ki recorded_result=160
compound="O=C(/C=C/C=C/C(=O)Oc1ccc2c(c1)[C@@]13CCCCC1[C@@H](C2)N(CC1CCC1)CC3)Oc1ccc2c(c1)[C@@]13CCCCC1[C@@H](C2)N(CC1CCC1)CC3 (some centres not stated)" experimental_endpoint=Ki recorded_result=28

The value of Ki measured for the compound O=C(CCCCCCCCC(=O)Oc1ccc2c(c1)[C@]13CCCCC1[C@H](C2)N(CC1CCC1)CC3)Oc1ccc2c(c1)[C@@]13CCCCC1[C@@H](C2)N(CC1CCC1)CC3 (single isomer, unassigned; (+)) turned out to be 23

The value of Ki measured for the compound O=C(O)CCCCCCCCC(=O)Oc1ccc2c(c1)[C@@]13CCCCC1[C@@H](C2)N(CC1CCC1)CC3 (some centres not stated) turned out to be 18

The value of Ki measured for the compound O=C(CCCCCCCCC(=O)Oc1ccc2c(c1)[C@]13CCCCC1[C@H](C2)N(CC1CCC1)CC3)Oc1ccc2c(c1)[C@]13CCCCC1[C@H](C2)N(CC1CCC1)CC3 (some centres not stated) turned out to be 700

###

Quick record of pKi values for Mu-type opioid receptor (Homo sapiens, UniProt P35372).
On this scale, pKi is minus log10 of a concentration expressed in M (mol/L).

compound="Oc1ccc2c(c1)[C@@]13CCCCC1[C@@H](C2)N(C[C@@H]1CCCO1)CC3 (some centres undefined)" experimental_endpoint=pKi recorded_result=11.00

The value of pKi measured for the compound CN1CC[C@]23c4c5ccc(OC(=O)CCCCCCCCC(=O)Oc6ccc7c(c6)[C@@]68CCCCC6[C@@H](C7)N(CC6CCC6)CC8)c4O[C@H]2[C@@H](O)C=C[C@H]3[C@H]1C5 (some centres undefined) turned out to be 9.66

The value of pKi measured for the compound O=C(CCCCCCCCC(=O)Nc1ccc2c(c1)[C@@]13CCCCC1[C@@H](C2)N(CC1CCC1)CC3)Nc1ccc2c(c1)[C@@]13CCCCC1[C@@H](C2)N(CC1CCC1)CC3 (some centres undefined) turned out to be 8.24

The value of pKi measured for the compound O=C(/C=C/C(=O)Nc1ccc2c(c1)[C@@]13CCCCC1[C@@H](C2)N(CC1CCC1)CC3)Nc1ccc2c(c1)[C@@]13CCCCC1[C@@H](C2)N(CC1CCC1)CC3 (some centres undefined) turned out to be 7.89

###

Target desc: Kappa-type opioid receptor (Homo sapiens, UniProt P41145)
Sequence (P41145 whole entry): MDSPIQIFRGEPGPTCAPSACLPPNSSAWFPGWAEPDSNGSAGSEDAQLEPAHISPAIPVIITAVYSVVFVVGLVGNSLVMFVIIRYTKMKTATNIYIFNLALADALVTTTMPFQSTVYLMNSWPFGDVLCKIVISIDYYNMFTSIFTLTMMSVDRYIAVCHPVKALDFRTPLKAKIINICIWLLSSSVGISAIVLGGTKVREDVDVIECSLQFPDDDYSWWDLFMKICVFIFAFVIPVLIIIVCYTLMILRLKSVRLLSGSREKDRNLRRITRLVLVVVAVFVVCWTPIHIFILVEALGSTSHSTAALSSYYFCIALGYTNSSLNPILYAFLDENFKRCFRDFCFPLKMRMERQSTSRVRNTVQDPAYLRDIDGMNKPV
Method: Activity at human kappa opioid receptor expressed in CHO cells by [35S]GTP-gamma-S binding assay
Experimental endpoint: EC50 (nM)
Field format: number, assumed nM, no unit text.

Known results for molecules:
molecule="CN1CC[C@]23c4c5ccc(OC(=O)CCCCCCCCC(=O)Oc6ccc7c(c6)[C@@]68CCCCC6[C@@H](C7)N(CC6CCC6)CC8)c4O[C@H]2[C@@H](O)C=C[C@H]3[C@H]1C5 (stereo partly drawn)" target_desc="Kappa-type opioid receptor (Homo sapiens, UniProt P41145)" experimental_endpoint=EC50 recorded_result=2.3
molecule="O=C(CCCCCCCCC(=O)Oc1ccc2c(c1)[C@@]13CCCCC1[C@@H](C2)N(CC1CC1)CC3)Oc1ccc2c(c1)[C@@]13CCCCC1[C@@H](C2)N(CC1CCC1)CC3 (single isomer, unassigned; (-))" target_desc="Kappa-type opioid receptor (Homo sapiens, UniProt P41145)" experimental_endpoint=EC50 recorded_result=2.5

The value of EC50 measured for the molecule O=C(/C=C/C=C/C(=O)Oc1ccc2c(c1)[C@@]13CCCCC1[C@@H](C2)N(CC1CCC1)CC3)Oc1ccc2c(c1)[C@@]13CCCCC1[C@@H](C2)N(CC1CCC1)CC3 (stereo partly drawn) turned out to be 17

###

The molecules listed here are annotated with their Imax.
Target desc: UniProtKB P35372
Method: Activity at human mu opioid receptor expressed in CHO cells by [35S]GTP-gamma-S binding assay
Assay type: functional, cell-based
Field format: number, assumed %, no unit text.

molecule=Oc1ccc2c(c1)[C@@]13CCCC[C@H]1[C@@H](C2)N(CC1CCC1)CC3 target_desc="UniProtKB P35372" experimental_endpoint=Imax value_unit=% recorded_result=50
molecule="O=C(CCCCCCCCC(=O)Oc1ccc2c(c1)[C@]13CCCCC1[C@H](C2)N(CC1CCC1)CC3)Oc1ccc2c(c1)[C@@]13CCCCC1[C@@H](C2)N(CC1CCC1)CC3 (single isomer, unassigned; (+))" target_desc="UniProtKB P35372" experimental_endpoint=Imax value_unit=% recorded_result=71
molecule="O=C(CCCCCCCCC(=O)Oc1ccc2c(c1)[C@@]13CCCCC1[C@@H](C2)N(CC1CC1)CC3)Oc1ccc2c(c1)[C@@]13CCCCC1[C@@H](C2)N(CC1CCC1)CC3 (single isomer, unassigned; (-))" target_desc="UniProtKB P35372" experimental_endpoint=Imax value_unit=% recorded_result=64

Now let's try a different one.
The value of Imax measured for the molecule O=C(CCCCCCCCC(=O)Oc1ccc2c(c1)[C@@]13CCCCC1[C@@H](C2)N(C[C@@H]1CCCO1)CC3)Oc1ccc2c(c1)[C@@]13CCCCC1[C@@H](C2)N(C[C@@H]1CCCO1)CC3 (some centres undefined) turned out to be 48

###

The compounds listed here are annotated with their Ki.
Target desc: Delta-type opioid receptor (Homo sapiens, UniProt P41143)
Method: Displacement of [3H]naltrindole from human delta opioid receptor expressed in CHO cells
Field format: number, assumed nM, no unit text.

Known results for compounds:
compound="C#CCN1CC[C@]23CCCCC2[C@H]1Cc1ccc(OC(=O)CCCCCCCCC(=O)Oc2ccc4c(c2)[C@@]25CCCCC2[C@@H](C4)N(CC#C)CC5)cc13 (stereo not given in full)" target_desc="Delta-type opioid receptor (Homo sapiens, UniProt P41143)" recorded_result=190
compound="O=C(CCCCCCCCC(=O)Oc1ccc2c(c1)[C@@]13CCCCC1[C@@H](C2)N(CC1CCC1)CC3)Oc1ccccc1 (stereo not given in full)" target_desc="Delta-type opioid receptor (Homo sapiens, UniProt P41143)" recorded_result=11
compound="O=C(CCCCCCCCC(=O)Oc1ccc2c(c1)[C@@]13CCCCC1[C@@H](C2)N(CC1CCC1)CC3)Nc1ccc2c(c1)[C@@]13CCCCC1[C@@H](C2)N(CC1CCC1)CC3 (stereo not given in full)" target_desc="Delta-type opioid receptor (Homo sapiens, UniProt P41143)" recorded_result=12
compound="O=C(CCCCCCCCC(=O)Nc1ccc2c(c1)[C@@]13CCCCC1[C@@H](C2)N(CC1CCC1)CC3)Nc1ccc2c(c1)[C@@]13CCCCC1[C@@H](C2)N(CC1CCC1)CC3 (stereo not given in full)" target_desc="Delta-type opioid receptor (Homo sapiens, UniProt P41143)" recorded_result=38

Now let's try a different one.
The value of Ki measured for the compound O=C(CCC(=O)Oc1ccc2c(c1)[C@@]13CCCCC1[C@@H](C2)N(CC1CCC1)CC3)Oc1ccc2c(c1)[C@@]13CCCCC1[C@@H](C2)N(CC1CCC1)CC3 (stereo not given in full) turned out to be 9.4
